Where these numbers come from: ChEMBL document CHEMBL1151170

System: Mycobacterium tuberculosis
test_protocol: Antitubercular activity against Mycobacterium tuberculosis H37Rv by microplate alamar blue assay
Type: functional
# maps each entry to its MIC
observed_property: MIC

smiles_input: O=c1c(O[C@@H]2O[C@H](CO)[C@@H](O)[C@H](O)[C@H]2O)c(-c2ccc(O)cc2)oc2cc(O)cc(O)c12
observed_property: MIC
observed_result: > 128 µg/mL
//
smiles_input: C[C@@H]1CC[C@]2(C(=O)O)CC[C@]3(C)C(=CC[C@@H]4[C@@]5(C)C[C@@H](O)[C@H](O)[C@@](C)(CO)[C@@H]5CC[C@]43C)[C@@H]2C1
observed_property: MIC
observed_result: > 128 µg/mL
//
smiles_input: O=C(c1c(O)cc(O)cc1O)[C@H](O)[C@H](O)c1cc(O)c(O)c(O)c1
observed_property: MIC
observed_result: > 128 µg/mL
